SYSTEM UNDER TEST: Rap guanine nucleotide exchange factor 4 (Homo sapiens) (UniProt Q8WZA2)
Sequence (Q8WZA2 whole entry, looked up): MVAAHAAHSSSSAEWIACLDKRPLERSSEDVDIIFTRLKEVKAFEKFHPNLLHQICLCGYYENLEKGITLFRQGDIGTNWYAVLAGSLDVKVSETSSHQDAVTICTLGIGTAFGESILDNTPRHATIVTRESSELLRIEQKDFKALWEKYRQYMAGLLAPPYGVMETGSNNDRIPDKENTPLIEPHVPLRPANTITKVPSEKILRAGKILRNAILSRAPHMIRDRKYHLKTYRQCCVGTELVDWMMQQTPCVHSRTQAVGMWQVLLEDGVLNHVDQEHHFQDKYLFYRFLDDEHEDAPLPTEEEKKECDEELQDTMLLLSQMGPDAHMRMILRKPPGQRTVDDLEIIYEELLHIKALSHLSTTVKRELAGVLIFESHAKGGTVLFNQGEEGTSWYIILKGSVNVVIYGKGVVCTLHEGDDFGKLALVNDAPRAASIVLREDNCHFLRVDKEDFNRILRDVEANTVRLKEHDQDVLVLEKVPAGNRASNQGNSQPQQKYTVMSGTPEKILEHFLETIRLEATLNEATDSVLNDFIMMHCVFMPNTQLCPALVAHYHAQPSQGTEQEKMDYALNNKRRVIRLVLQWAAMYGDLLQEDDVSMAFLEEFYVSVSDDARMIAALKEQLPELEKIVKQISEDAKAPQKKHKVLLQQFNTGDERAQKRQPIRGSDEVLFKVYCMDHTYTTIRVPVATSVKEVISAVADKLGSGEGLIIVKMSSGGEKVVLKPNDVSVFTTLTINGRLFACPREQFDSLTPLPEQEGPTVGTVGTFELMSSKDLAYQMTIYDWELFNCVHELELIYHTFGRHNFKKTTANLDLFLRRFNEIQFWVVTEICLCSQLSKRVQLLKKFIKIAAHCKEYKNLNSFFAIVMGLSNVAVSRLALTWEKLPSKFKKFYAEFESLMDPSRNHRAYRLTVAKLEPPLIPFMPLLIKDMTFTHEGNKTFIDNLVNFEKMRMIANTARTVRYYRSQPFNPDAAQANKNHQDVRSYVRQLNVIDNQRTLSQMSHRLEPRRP
PROTOCOL: Confirmatory qHTS for antagonist of cAMP-regulated guanine nucleotide exchange factor 4 (EPAC2) (AID 1645885); further: nearly all actives have a fitted effect of over 25% in size
RUN PARAMETERS: EPAC2 Rap1B-BODIPY-GDP exchange fluorescence, biochemical; series mostly up to 12.7 µM
Inconclusive results are not listed. Activity calls are given as the source filed them. The call rests on the fitted dose curve; in most records, active means well fitted inhibition curve with a large enough effect; inconclusive means small, poorly fitted or top-dose-only effect; inactive means no such curve, though single readings can be large or run the other way.
Labels: class 1 for active, class 0 for inactive

COMPOUND SMILES	ASSIGNED LABEL
COn1c(-c2ccc(Cl)cc2Cl)nc2ncccc21	class 1
CCC(=O)Nc1ccc(C(=O)NNC(=O)c2ccc([N+](=O)[O-])cc2)cc1	class 0
Cc1ccc(S(=O)(=O)CC(=O)N(CCCN(C)C)c2nc3ccc(C)cc3s2)cc1	class 0
CCc1nc2c(OCc3ccc(Cl)cc3)cccn2c1N(C)C(=O)c1ccccc1F	class 0

###

Test system: PAD
PROTOCOL: qHTS profiling for inhibitors of Plasmodium falciparum proliferation (AID 504749); further: nearly all actives have a fitted effect of over 60% in size
RUN PARAMETERS: P. falciparum in erythrocytes, SYBR Green DNA, 72 h; series mostly up to 12.8 µM
Records with an inconclusive call do not appear. Activity calls are given as the source filed them. Calls follow the shape of the dose curve; as a rule, active = well fitted inhibition curve with a large enough effect; inconclusive = small, poorly fitted or top-dose-only effect; inactive = flat fitted curve, though single readings scatter.
Labels: label 1 = active, label 0 = inactive

MOLECULE	ASSIGNED LABEL
CC(C)(C)NC(=O)[C@@H]1CC[C@@H]2[C@@H]3CC[C@@H]4NC(=O)C=C[C@@]4(C)[C@H]3CC[C@]21C	label 0
COC1C=CO[C@@]2(C)Oc3c(C)c(O)c4c(O)c(c(C=NN5CCN(C)CC5)c(O)c4c3C2=O)NC(=O)/C(C)=C\C=CC(C)C(O)[C@@H](C)C(O)C(C)[C@H](OC(C)=O)C1C (stereo partly drawn)	label 1
C/C1=C2N=C(/C=C3N=C(/C(C)=C4\[N-]C(C)(C5N=C1C(C)(CCC(=O)NCC(C)OP(=O)([O-])O[C@H]1C(O)C(n6cnc7cc(C)c(C)cc76)O[C@@H]1CO)C5CC(N)=O)C(C)(CC(N)=O)C4CCC(N)=O)C(C)(CC(N)=O)C\3CCC(N)=O)C(C)(C)C/2CCC(N)=O.[CH2-]C1OC(n2cnc3c(N)ncnc32)C(O)C1O.[Co] (stereo partly drawn)	label 0

###

SYSTEM UNDER TEST: Rap guanine nucleotide exchange factor 3 (Homo sapiens) (UniProt O95398)
Sequence (O95398 whole entry, looked up): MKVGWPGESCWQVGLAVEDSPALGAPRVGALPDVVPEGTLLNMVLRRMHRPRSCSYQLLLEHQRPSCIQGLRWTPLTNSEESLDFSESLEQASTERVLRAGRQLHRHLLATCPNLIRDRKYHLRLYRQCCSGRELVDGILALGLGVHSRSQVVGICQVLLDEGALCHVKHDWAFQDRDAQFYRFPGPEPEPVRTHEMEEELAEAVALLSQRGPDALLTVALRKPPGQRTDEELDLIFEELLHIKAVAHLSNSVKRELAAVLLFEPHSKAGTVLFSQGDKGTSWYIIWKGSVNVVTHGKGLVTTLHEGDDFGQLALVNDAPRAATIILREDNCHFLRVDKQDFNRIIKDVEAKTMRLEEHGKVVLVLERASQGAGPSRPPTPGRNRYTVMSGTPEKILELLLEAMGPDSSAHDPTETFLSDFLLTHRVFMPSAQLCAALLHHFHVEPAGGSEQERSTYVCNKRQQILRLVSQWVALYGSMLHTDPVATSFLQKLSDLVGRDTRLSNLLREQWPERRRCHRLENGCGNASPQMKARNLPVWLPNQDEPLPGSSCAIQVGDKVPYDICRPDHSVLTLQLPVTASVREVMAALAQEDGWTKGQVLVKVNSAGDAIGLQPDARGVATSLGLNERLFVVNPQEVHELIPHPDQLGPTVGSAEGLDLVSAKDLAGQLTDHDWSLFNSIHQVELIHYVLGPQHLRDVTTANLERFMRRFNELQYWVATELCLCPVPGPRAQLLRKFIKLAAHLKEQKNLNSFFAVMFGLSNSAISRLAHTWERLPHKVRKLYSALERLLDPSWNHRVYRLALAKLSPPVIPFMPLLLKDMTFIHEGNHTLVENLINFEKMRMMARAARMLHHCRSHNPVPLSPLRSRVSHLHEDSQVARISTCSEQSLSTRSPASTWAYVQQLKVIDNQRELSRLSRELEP
PROTOCOL: Confirmatory qHTS for agonist of cAMP-regulated guanine nucleotide exchange factor 3 (EPAC1) (AID 1645881); further: nearly all actives have a fitted effect of over 75% in size;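 on activation: EPAC1 catalysed release of BODIPY-GDP from Rap1B seen as fluorescence loss; 100% = effect of cAMP agonist control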
RUN PARAMETERS: EPAC1 Rap1B BODIPY-GDP exchange fluorescence; series mostly up to 154 µM
Results filed as inconclusive are left out. Active and inactive are the calls of the source. Calls follow the shape of the dose curve; as a rule, active = well fitted activation curve with a large enough effect; inconclusive = small, poorly fitted or top-dose-only effect; inactive = no such curve, though single readings can be large or run the other way.
Labels: label 1 (active), label 0 (inactive)

COMPOUND	ASSIGNED LABEL
COc1cccc(NC(=O)CN(C)C(=O)CNC(=O)c2ccc(Oc3ccccc3)cc2)c1	label 0
Cc1ccnc(NS(=O)(=O)c2ccc(NC(=O)Cc3c(F)cccc3Cl)cc2)n1	label 0
Cc1nc(N)sc1C(=O)N1N=N1	label 0
CCCCN1C(=O)/C(=C/C=C2\Oc3ccccc3N2CC)SC1=S	label 1
CCOc1ccc(C(C(=O)NC2CCCC2)N(C(=O)c2snc(C(N)=O)c2N)C2CCCC2)cc1 (stereo not given)	label 0
CC(c1ccc(N(C)C)cc1)c1ccnc2ccccc12 (stereo not given)	label 0
S=C(Nc1ccccc1)Nc1ccccn1	label 0
N#Cc1c(/N=C/c2ccco2)sc2c1CCC2	label 0
O=C(c1ccccc1)c1nn(-c2ccccc2)c(=O)cc1-c1ccccc1	label 0
COc1ccc(C(C)=O)cc1COc1ccc(F)cc1	label 0
Cc1ccc(NC(=O)c2ccc(Cl)c(S(=O)(=O)N3CCc4ccccc43)c2)nc1	label 0
Cc1ccc(S(=O)(=O)N2[C@@H](c3ccc(Cl)cc3)C(C(=O)O)=CC[C@H]2c2ccc(Cl)c(Cl)c2)cc1	label 0
CCC(C(=O)OCC(=O)Nc1cc(C)ccc1OC)c1ccccc1 (stereo not given)	label 0
O=C(c1ccco1)N(Cc1ccc([N+](=O)[O-])cc1)c1ccc(Cl)cc1	label 0
COc1ccc2cc3[n+](cc2c1O)CCc1cc2c(cc1-3)OCO2	label 0
CC(C)(C)c1ccc(-c2nc(SCCCOc3ccccc3)n3[nH]c(=O)cc3n2)cc1	label 0
O=C(N/N=C/C=C\c1ccco1)c1ccccn1	label 0
COc1cccc(-c2nc3cc(SC)ccc3cc2CN(C(=O)c2csc(C)n2)C2CC2)c1	label 0
Cc1cc(N(C)C)cc(C)c1/C=C/c1ccnc2ccccc12	label 0
CC1CN(C(=O)N2CCOCC2)CCN1C(=O)N1CCOCC1 (stereo not given)	label 0
N#Cc1c(-c2ccccc2)nc(SCc2cccc(C(F)(F)F)c2)[nH]c1=O	label 0
Cc1cccc(Cn2c(SCc3ccc(C(=O)N4CCCCCC4)cc3)nc3ccncc32)c1	label 0
O=C(CSc1nnc(SCc2ccccc2)s1)N/N=C/C=C/c1ccco1	label 0
CCn1c(C)nc2cc(C(=O)N/N=C(\C)c3ccccc3O)ccc21	label 0
Cc1ccc(C)c(-c2ccc(=O)n(Cc3cccc(Br)c3)n2)c1	label 0
CCOC(=O)c1ccccc1NC(=O)c1c(-c2ccccc2)noc1C	label 0
CCn1c2ccccc2c2nnc(SCC(=O)N(C)C3CCS(=O)(=O)C3)nc21 (stereo not given)	label 0
CCC(=O)N1N=C(c2cccs2)CC1c1ccc(OC)cc1 (stereo not given)	label 0
CCNC(=O)COc1ccc(/C=C2\COc3ccccc3C2=O)cc1OC	label 0
O=C(O)C(c1ccccc1)N1C(=O)/C(=C\c2ccc(O)c(O)c2)SC1=S (stereo not given)	label 0
COc1cc(-c2noc(C)c2-c2ccc3[nH]ccc3c2)cc(OC)c1OC	label 0
COc1ccc(Br)cc1CN(C)C(=O)c1ccccc1OCc1c(C)noc1C	label 0
COc1ccc(OCC(=O)Nc2ccccc2N2CCCCC2)cc1	label 0
Cc1cc(N)c2cc(NC(=O)/C=C/c3ccccc3Cl)ccc2n1	label 1
COC(=O)CSc1nc(C)cc(Oc2ccccc2)n1	label 0
CCOc1nc(C)cc(C)c1S(=O)(=O)c1ccc(Cl)cc1	label 0
CCc1ccc(NC(=O)CSc2nnc(Cc3cccn3C)n2-c2ccc(OC)cc2)cc1	label 0
COc1ccc(OC)c(/C=c2\sc3nc(-c4cccs4)nn3c2=O)c1	label 1
COc1cc(S(=O)(=O)Nc2ccc(C)cc2)ccc1N=Cc1c(C)c(C#N)c(=O)n(C)c1O	label 0
Cc1[nH]c2ccccc2c1/C=C/c1ccc2ccccc2n1	label 0

###

PROTOCOL: qHTS Assay for Lipid Storage Modulators (AID 1519)
RUN PARAMETERS: Drosophila S3 cells, BODIPY lipid droplet/cell ratio, laser cytometry; measured here: lipid channel max response; cells loaded with oleic acid
Results filed as inconclusive are left out.
MEASURED ATTRIBUTE: max response (%)

MOLECULE	MEASURED ATTRIBUTE	UNITS SYMBOL	MEASURED NUMBER
CC(=O)/C=C\C1[C@]2(C)CCCC(C)(C)C2CC[C@@]1(C)O (some centres not stated)	max response	%	-8.32
CN[C@@H]1[C@H](O[C@H]2[C@@H](O[C@@H]3[C@@H](O)[C@@H](O)[C@@H](N=C(N)N)[C@@H](O)[C@@H]3N=C(N)N)O[C@@H](C)[C@]2(O)CO)O[C@H](CO)[C@@H](O)[C@@H]1O	max response	%	-12.5
OCC1OC(n2cnc3c(Cl)ncnc32)C(O)C1O (configuration not stated)	max response	%	10.3
O=C(/C=C/c1ccccc1)OC1CC(O)C2(O)C=CO[C@@H](OC3OC(CO)C(O)C(O)C3O)C12 (some centres not stated)	max response	%	7.13
CCC(CCC(C)C1CCC2C3CC=C4CC(OC(C)=O)CC[C@@]4(C)C3CC[C@@]12C)C(C)C (some centres not stated)	max response	%	28.4
CC1CCC(C(C)C)[C@H](OC(=O)c2ccccc2)C1 (some centres not stated)	max response	%	15.1
CC(=O)OCC(=O)[C@@]1(OC(C)=O)[C@H](C)C[C@H]2[C@@H]3C[C@H](F)C4=CC(=O)C=C[C@@]4(C)[C@]3(F)[C@H](O)C[C@@]21C	max response	%	-17.2

###

SYSTEM UNDER TEST: Rap guanine nucleotide exchange factor 3 (Homo sapiens)
PROTOCOL: Confirmatory qHTS for agonist of cAMP-regulated guanine nucleotide exchange factor 3 (EPAC1) (AID 1645881); further: nearly all actives have a fitted effect of over 75% in size;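 on activation: EPAC1 catalysed release of BODIPY-GDP from Rap1B seen as fluorescence loss; 100% = effect of cAMP agonist control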
RUN PARAMETERS: EPAC1 Rap1B BODIPY-GDP exchange fluorescence; series mostly up to 154 µM
Inconclusive results are not listed. The source made the active and inactive calls. The call rests on the fitted dose curve; in most records, active means well fitted activation curve with a large enough effect; inconclusive means small, poorly fitted or top-dose-only effect; inactive means no such curve, though single readings can be large or run the other way.
Labels: active, inactive

MOLECULE	ASSIGNED LABEL
COc1ccc(N2CCN(C(=O)c3cc(C)on3)CC2)cc1	inactive
O=C(COC(=O)/C=C/c1cccc(C(F)(F)F)c1)NC(=O)NC1CCCC1	inactive
O=C(O)c1ccc(N/N=C/c2ccc3c(c2)OCO3)cc1	inactive
Cc1[nH]c2ccccc2c1C(C[N+](=O)[O-])c1cccs1 (stereo not drawn)	inactive
O=C(COc1ccc(F)cc1)Nc1nccs1	inactive
COc1ccc(C(=O)NC2CCCc3ccccc32)c(OC)c1OC (stereo not drawn)	inactive
CN1CCS/C1=C/C=C1\SC(=S)N(CC(=O)O)C1=O	active
Cc1noc(NS(=O)(=O)c2ccc(NC(=O)CSc3nnc4c(n3)[nH]c3ccccc34)cc2)c1C	inactive
Cc1cc(-c2cc(F)cc3c2OC(CNC(=O)CCn2cncn2)C3)ccc1F (stereo not drawn)	inactive
Nc1c(-c2nc(-c3cccs3)no2)nnn1-c1cccc(Cl)c1	inactive
C=CCSc1nc2ccccc2c(=O)n1C1CCOC(C)(C)C1 (stereo not drawn)	inactive
CCOC(=O)C1CCN(C(c2cc(OC)c(OC)c(OC)c2)c2sc3nc(C)nn3c2O)CC1 (stereo not drawn)	inactive
Cc1ccc(C(=O)NCCCNC(=O)c2ccco2)cn1	inactive
CCOC(=O)c1c(/N=C/C2=C(O)CC(C)(C)CC2=O)sc(C)c1C	inactive
CCOc1ccccc1NC1c2ccccc2C(=O)N1Cc1ccco1 (stereo not drawn)	inactive
CC(/C=C1\SC(=S)N(C(C(=O)O)C(C)C)C1=O)=C\c1ccccc1 (stereo not drawn)	inactive
CC1(Cc2ccc(Cl)cc2)C(=O)Nc2ccc(-c3cccnc3)cc21 (stereo not drawn)	inactive
COc1cccc(NC(=O)c2csc3c2CCCC3)c1	inactive
COC(=O)[C@@H]1C[C@@H](c2ccccc2)[C@H](C)C1(C)C	inactive
Fc1ccc(C(Nc2ccccn2)c2c[nH]c3ccccc23)cc1 (stereo not drawn)	inactive
Cc1[nH]n(-c2ccccc2)c(=O)c1C(c1cccc([N+](=O)[O-])c1O)c1c(C)[nH]n(-c2ccccc2)c1=O	inactive
CC1Cc2nc(SCC(=O)NCc3ccccc3)n(Cc3ccccc3)c(=O)c2S1 (stereo not drawn)	inactive
CC(=O)CCc1oc2ccc(C)cc2c1-c1ccc(C)o1	inactive
Cc1c(C(=O)N2c3ccccc3CC2C)oc2ccccc12 (stereo not drawn)	inactive
O=C(O)c1ccccc1NS(=O)(=O)c1ccc(NN=Cc2ccc(F)cc2)c([N+](=O)[O-])c1	inactive
CCc1nc2c(OCc3ccc(C(=O)OC)cc3)cccn2c1N(C)C(=O)CC(C)C	inactive
Cc1ccc(NC(=O)c2ccc(S(=O)(=O)N3CCCCCC3)cc2)nc1	inactive
Cc1cc(Nc2ccccc2)n(-c2nc3ccccc3[nH]2)n1	inactive
O=C(O)CN1C(=O)/C(=C\c2cc(Br)ccc2OCc2ccccc2F)SC1=S	inactive
COc1ccc(NC(=O)c2ccc3c(SCC(=O)O)c4c(nc3c2)CCCC4)c(OC)c1	inactive
CS(=O)(=O)Nc1ccc(C2=NN(C(=O)c3cccc(F)c3)C(c3cccs3)C2)cc1 (stereo not drawn)	inactive
CC(=O)c1sc(NC(=O)c2c(F)cccc2F)nc1C	inactive
COc1ccc(Cl)cc1NC(=O)CN(C)Cc1cccs1	inactive
CCC(C)Sc1c(C(C)C)cnc2c1c(=O)n(C)c(=O)n2C (stereo not drawn)	inactive
COc1ccc(NC(=O)c2ccc(NC3=NC4CS(=O)(=O)CC4S3)cc2)cc1 (stereo not drawn)	inactive
COC(=O)c1cc(CNC(=O)c2ccccn2)cc(NC(=O)c2ccccc2OC)c1	inactive
O=C(COC(=O)c1ccc2c(c1)OCO2)NC1CCS(=O)(=O)C1 (stereo not drawn)	inactive
COc1cccc(C(=O)N(Cc2cc3ccc(C)cc3nc2N(C)C)C2CC2)c1OC	inactive
